# tested_on: BRISC BRCC45 F140A (Homo sapiens, UniProt P46736+Q15018+Q9NXR7, F140A)
# method: BRISC mutant IQF assay: BRCC45 F140A
# Type: biochemical
# Experimental: IQF assays were performed in DUB reaction buffer containing 50 mM HEPES–NaOH pH 7.0, 100 mM NaCl, 0.1 mg ml^−1 BSA, 1 mM DTT and 0.03% v/v Brij-35. […] Michaelis–Menten analyses and Lineweaver–Burk plots were calculated using GraphPad Prism (version 9.0). To assess enzymatic activity, BRISC complexes were diluted to concentrations between 1 nM and 50 nM. […] DUB activity was measured using IQF K63-linked diubiquitin (LifeSensors, DU6303) at 50 nM. […]
pIC50: −log10 of the molar value.

- compound: "O=C(NC1C2CNCC21)c1nn(C(=O)c2c(Cl)cccc2Cl)cc1NC(=O)c1c(Cl)cccc1Cl (stereo not shown)"
  pIC50: 5.37
